Below, each of the compounds is paired with its reported HD50 value.
Test system: Mus musculus
Experiment: Hypnotic activity in ip dosed ddN mouse assessed as loss of righting reflex administered as gum arabic suspension measured within 60 mins
Type: functional
Provide the reading as a plain figure in mg/kg.

For record CCCCOc1cc(C(N)=O)nn1-c1ccccc1 the listed HD50 is 94

For record CC(C)CCOc1cc(C(=O)N(C)C)nn1-c1ccccc1 the listed HD50 is 47

For record CC(C)Oc1cc(C(=O)N(C)C)nn1-c1ccccc1 the listed HD50 is 49

For record CCCCOc1cc(C(=O)NCCC)nn1-c1ccccc1 the listed HD50 is 39

For record CCCOc1cc(C(=O)N(C)C)nn1-c1ccccc1 the listed HD50 is 27

For record CCCCCOc1cc(C(=O)N(C)C)nn1-c1ccccc1 the listed HD50 is 63

For record CCCCNC(=O)c1cc(OCCCC)n(-c2ccccc2)n1 the listed HD50 is 70

====

Below, each of the compounds is paired with its reported LD50 value.
Experiment: Acute toxicity in po dosed mouse
Type: organism-based
Settings: in vivo
Provide the reading as a plain figure in mg/kg.

Example cases with answers are listed next.
compound: CCCCOc1cc(C(=O)NCC)nn1-c1ccccc1
uom: mg/kg
LD50: 400
--
compound: COc1cc(C(=O)N(C)C)nn1-c1ccccc1
uom: mg/kg
LD50: 385
--
compound: CN1C(=O)NC(=O)C(C)(C2=CCCCC2)C1=O (stereo not drawn) [HEXOBARBITAL]
uom: mg/kg
LD50: 745
--
compound: CCCCCOc1cc(C(=O)N(C)C)nn1-c1ccccc1
uom: mg/kg
LD50: 420
--
compound: CC(C)CCOc1cc(C(=O)N(C)C)nn1-c1ccccc1
uom: mg/kg
LD50: 350

For record CCCOc1cc(C(=O)N(C)C)nn1-c1ccccc1 the listed LD50 is 320

For record CCCCOc1cc(C(=O)N(C)C)nn1-c1ccccc1 the listed LD50 is 460

For record CCCCOc1cc(C(N)=O)nn1-c1ccccc1 the listed LD50 is 360

For record CCCCOc1cc(C(=O)NCCC)nn1-c1ccccc1 the listed LD50 is 650

For record CCCCNC(=O)c1cc(OCCCC)n(-c2ccccc2)n1 the listed LD50 is 370

For record CCOc1cc(C(=O)N(C)C)nn1-c1ccccc1 the listed LD50 is 330

For record CCCCOc1cc(C(=O)NC)nn1-c1ccccc1 the listed LD50 is 325

For record CC(C)Oc1cc(C(=O)N(C)C)nn1-c1ccccc1 the listed LD50 is 525

====

Below, each of the compounds is paired with its reported inhibition in vivo at 100 mg/kg value.
System: Rattus norvegicus
Assay: Antiinflammatory activity in Wistar rat assessed as inhibition of carrageenan-induced hind paw edema at 100 mg/kg, po administered as gum arabic suspension 30 mins prior to carrageenin injection measured 3 hrs post-carrageenin injection
Format: functional
Provide the reading as a plain figure in %.

Example cases with answers are listed next.
smiles-str: CCCCOc1cc(C(=O)N2CCOCC2)nn1-c1ccccc1
uom: %
inhibition in vivo at 100 mg/kg: 32.9
--
smiles-str: COc1cc(C(N)=O)nn1-c1ccccc1
uom: %
inhibition in vivo at 100 mg/kg: 34.3
--
smiles-str: CCCCOc1cc(C(=O)NCCC)nn1-c1ccccc1
uom: %
inhibition in vivo at 100 mg/kg: 51.2
--
smiles-str: COc1cc(C(=O)N(C)C)nn1-c1ccccc1
uom: %
inhibition in vivo at 100 mg/kg: 47.5
--
smiles-str: CCCCOc1cc(C(N)=O)nn1-c1ccccc1
uom: %
inhibition in vivo at 100 mg/kg: 26.5

For record Cc1c(N(C)C)c(=O)n(-c2ccccc2)n1C the listed inhibition in vivo at 100 mg/kg is 66

For record COc1cc(C(=O)Nc2ccccc2C(=O)O)nn1-c1ccccc1 the listed inhibition in vivo at 100 mg/kg is 24.1

For record CCCCC1C(=O)N(c2ccccc2)N(c2ccccc2)C1=O the listed inhibition in vivo at 100 mg/kg is 54.5

For record CCCCOc1cc(C(=O)NC)nn1-c1ccccc1 the listed inhibition in vivo at 100 mg/kg is 65

For record COc1cc(C(=O)N2CCCC2)nn1-c1ccccc1 the listed inhibition in vivo at 100 mg/kg is 29.2

For record CCCCOc1cc(C(=O)N2CCN(CCOC(=O)CC)CC2)nn1-c1ccccc1 the listed inhibition in vivo at 100 mg/kg is 0

For record CCCCOc1cc(C(=O)Nc2ccccc2C(=O)O)nn1-c1ccccc1 the listed inhibition in vivo at 100 mg/kg is 0
